Each recorded value in this set is attributed to patent US9273028B2.

Measurement Kind: IC50

What IC50 appears in the records for this compound with BTK (Homo sapiens, UniProt Q06187)? `O=C(CNc1cc(Cl)cc(Cl)c1)N1CCC[C@@H](Nc2ncnc3[nH]cc(F)c23)C1`
Sequence (Q06187 whole entry): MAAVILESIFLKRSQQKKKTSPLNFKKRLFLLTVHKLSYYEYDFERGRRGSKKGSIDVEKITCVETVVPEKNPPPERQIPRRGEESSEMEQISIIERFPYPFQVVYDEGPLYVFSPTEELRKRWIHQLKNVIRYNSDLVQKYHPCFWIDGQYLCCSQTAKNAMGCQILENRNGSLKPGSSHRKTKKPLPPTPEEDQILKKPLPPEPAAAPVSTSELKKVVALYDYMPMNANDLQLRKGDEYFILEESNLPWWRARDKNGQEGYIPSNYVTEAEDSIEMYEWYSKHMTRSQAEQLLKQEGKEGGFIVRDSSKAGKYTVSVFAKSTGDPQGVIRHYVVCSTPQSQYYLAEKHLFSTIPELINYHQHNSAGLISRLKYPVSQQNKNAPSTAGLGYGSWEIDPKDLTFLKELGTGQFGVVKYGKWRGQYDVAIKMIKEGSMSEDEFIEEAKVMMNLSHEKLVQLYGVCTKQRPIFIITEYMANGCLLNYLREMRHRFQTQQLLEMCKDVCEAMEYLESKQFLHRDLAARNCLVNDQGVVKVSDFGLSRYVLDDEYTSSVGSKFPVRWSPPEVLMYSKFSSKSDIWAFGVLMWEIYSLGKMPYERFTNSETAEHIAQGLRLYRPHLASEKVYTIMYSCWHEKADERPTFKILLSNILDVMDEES
100 to 999 nM

What IC50 appears in the records for this compound with BTK (Homo sapiens, UniProt Q06187)? `C[C@H]1[C@H](Nc2ncnc3[nH]ncc23)CCCN1C(=O)CNc1cc(Cl)cc(Cl)c1`
100 to 999 nM

What IC50 appears in the records for this compound with BTK (Homo sapiens, UniProt Q06187)? `O=C(CNc1ccccc1Cl)N1CCC[C@H](Nc2ncnc3[nH]ccc23)C1`
> 10000 nM

What IC50 appears in the records for this compound with BTK (Homo sapiens, UniProt Q06187)? `C[C@@H]1C[C@H](Nc2ncnc3[nH]ncc23)CN(C(=O)CNc2cc(Cl)cc(Cl)c2)C1`
< 100 nM

What IC50 appears in the records for this compound with BTK (Homo sapiens, UniProt Q06187)? `CC(C)CN(CC(C)C)S(=O)(=O)c1ccccc1NCC(=O)N1CCC[C@@H](Nc2ncnc3[nH]ccc23)C1`
100 to 999 nM

What IC50 appears in the records for this compound with BTK (Homo sapiens, UniProt Q06187)? CC1C(Nc2ncnc3[nH]ccc23)CCCN1C(=O)[C@@H](C)Nc1cc(Cl)cc(Cl)c1 (some centres unmarked)
< 100 nM

What IC50 appears in the records for this compound with BTK (Homo sapiens, UniProt Q06187)? O=C(CNc1cc(Cl)cc(Cl)c1)N1CCC2CCN(c3ncnc4[nH]ncc34)C2C1 (centres unmarked)
< 100 nM

What IC50 appears in the records for this compound with BTK (Homo sapiens, UniProt Q06187)? `CN(c1ncnc2[nH]ncc12)[C@H]1CCN(C(=O)CNc2cc(Cl)cc(Cl)c2)C1`
> 10000 nM
